TEST: Quantitative High-Throughput drug screen in 47 multiple myeloma cell lines against the NCATS MIPE library collection: U266_ATCC cell viability assay (AID 1919864); also: nearly all actives have a fitted effect of over 35% in size
TEST CONTEXT: U266 myeloma viability, CellTiter-Glo ATP luminescence, 48 h; series mostly up to 45.8 µM
Records with an inconclusive call do not appear. Calls of active or inactive are those of the source. Calls follow the shape of the dose curve; as a rule, active = well fitted cell-killing curve with a large enough effect; inconclusive = small, poorly fitted or top-dose-only effect, or effect the other way; inactive = no such curve, though single readings can be large or run the other way.
Respond with a class label; see yes (1) = active, no (0) = inactive

Recorded results for 3 compounds are shown here.
compound=CNC(=O)c1nn(C)c2c1C(C)(C)Cc1cnc(Nc3ccc(N4CCN(C)CC4)cc3)nc1-2 assigned_class="yes (1)"
compound=CC(C)[C@H](C(=O)Nc1ccc(C(=O)NO)cc1)c1ccccc1 assigned_class="yes (1)"
compound=Cn1cc(-c2ccncc2)c(-c2ccc(OCc3ccc4ccccc4n3)cc2)n1 assigned_class="yes (1)"

Consider now this further compound.
Q: Would you mind telling me which call this test gave `CC(=O)Nc1nc(C)c(-c2ccc(Cl)c(S(=O)(=O)NCCO)c2)s1` ?
Result: yes (1)
